Values were extracted from patent US20160272626A1.

Measured Ki values are reported for all entries that follow.
subjectOfTest: rat TAAR1 (Rattus norvegicus, UniProt Q923Y9)
Construct: expressed in transfected cells; membrane preparation
Sequence (Q923Y9 whole entry): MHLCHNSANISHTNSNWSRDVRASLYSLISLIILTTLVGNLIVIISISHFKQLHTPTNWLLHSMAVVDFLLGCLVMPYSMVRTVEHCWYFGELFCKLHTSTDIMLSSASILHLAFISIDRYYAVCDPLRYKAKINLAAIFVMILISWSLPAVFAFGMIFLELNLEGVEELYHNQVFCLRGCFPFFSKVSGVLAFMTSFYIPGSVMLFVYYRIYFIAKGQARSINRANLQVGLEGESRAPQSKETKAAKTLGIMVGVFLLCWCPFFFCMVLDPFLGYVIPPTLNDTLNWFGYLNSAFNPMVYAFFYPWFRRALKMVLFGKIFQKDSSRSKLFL
protocolDetails: Radioligand binding assay on rat TAAR1
conditionContext: rat TAAR1, HEK-293 membranes, second value of cell mouse/rat
Counter-ions that a name gives are not always drawn.
# unit: µM | format: bare number

Ask: Report Ki for COc1cnc(C(=O)Nc2ccc([C@H]3CNCCO3)c(F)c2)cn1 [Example 10, hydrochloride] please.
Result: 0.54

Ask: Same question, O=C(Nc1ccc([C@H]2CNCCO2)c(F)c1)c1cnc(OCC(F)(F)F)cn1 this time
Result: 0.0202

Ask: Same question, CCOc1cnc(C(=O)Nc2ccc([C@H]3CNCCO3)c(F)c2)cn1 [Example 13, hydrochloride] this time
Result: 0.11

Ask: Same question, O=C(Nc1ccc([C@H]2CNCCO2)c(F)c1)c1cnc(N2CC(F)(F)C2)cn1 [Example 16, hydrochloride] this time
Result: 0.191

Ask: Same question, Cc1ccc2ncc(C(=O)Nc3ccc([C@H]4CNCCO4)c(F)c3)nc2c1 [Example 15, hydrochloride] this time
Result: 0.0131

Ask: Same question, O=C(Nc1ccc([C@H]2CNCCO2)c(F)c1)c1cnc(C2CC2)cn1 [Example 18, hydrochloride] this time
Result: 0.0625

Ask: Same question, O=C(Nc1ccc([C@H]2CNCCO2)c(F)c1)c1cnc2ccccc2n1 [Example 14, hydrochloride] this time
Result: 0.0222

Ask: Same question, CC(C)c1cncc(C(=O)Nc2ccc([C@H]3CNCCO3)cc2F)n1 this time
Result: 0.391

Ask: Same question, CC(C)c1cncc(C(=O)Nc2ccc([C@H]3CNCCO3)c(F)c2)n1 this time
Result: 0.0849

Ask: Same question, O=C(Nc1ccc([C@@H]2CNCCO2)cc1F)c1cnc(OCC(F)(F)F)cn1 this time
Result: 0.0183

====

subjectOfTest: mouse TAAR1 (Mus musculus, UniProt Q923Y8)
Construct: expressed in transfected cells; membrane preparation
Sequence (Q923Y8 whole entry): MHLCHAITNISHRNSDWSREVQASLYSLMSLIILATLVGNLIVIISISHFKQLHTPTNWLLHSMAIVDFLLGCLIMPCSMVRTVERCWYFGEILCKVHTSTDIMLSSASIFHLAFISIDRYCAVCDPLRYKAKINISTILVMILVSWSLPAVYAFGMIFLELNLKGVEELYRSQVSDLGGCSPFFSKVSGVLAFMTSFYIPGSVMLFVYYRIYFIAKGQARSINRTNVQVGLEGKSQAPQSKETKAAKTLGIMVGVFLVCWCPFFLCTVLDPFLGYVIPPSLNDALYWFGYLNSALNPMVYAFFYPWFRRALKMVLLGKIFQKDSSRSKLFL
protocolDetails: Radioligand binding assay on mouse TAAR1
conditionContext: mouse TAAR1, HEK-293 membranes, first value of cell mouse/rat
Counter-ions that a name gives are not always drawn.
assayReadout: log10(Ki) (log10 of the value in µM)
Note: values are log10 of Ki expressed in µM.

Use these answered entries as a reference point.
In [3]: df
Out[3]:
                                   compound  assayreadout  resultnumber
0  N#Cc1cc(NC(=O)c2cnc(C(F)(F)F)cn2)ccc1[C@@H]1CNCCO1 [Example 2, hydrochloride]     log10(Ki)         -1.74
1  O=C(Nc1ccc([C@H]2CNCCO2)cc1F)c1cnc(OCC(F)(F)F)cn1     log10(Ki)         -2.34

Ask: Report log10(Ki) for O=C(Nc1ccc([C@H]2CNCCO2)cc1F)c1cncc(OCC(F)(F)F)n1 please.
Result: -1.36

Ask: Same question, CC(C)c1cncc(C(=O)Nc2ccc([C@H]3CNCCO3)cc2F)n1 this time
Result: -1.28

Ask: Same question, O=C(Nc1ccc([C@H]2CNCCO2)c(F)c1)c1cnc(OCC(F)(F)F)cn1 this time
Result: -2.38

Ask: Same question, COc1cnc(C(=O)Nc2ccc([C@H]3CNCCO3)c(F)c2)cn1 [Example 10, hydrochloride] this time
Result: -1.87

Ask: Same question, N#Cc1cc(NC(=O)c2cncc(C(F)(F)F)n2)ccc1[C@@H]1CNCCO1 [Example 4, hydrochloride] this time
Result: -1.08

Ask: Same question, O=C(Nc1ccc([C@H]2CNCCO2)c(F)c1)c1cncc(C(F)(F)F)n1 [Example 5, hydrochloride] this time
Result: -1.42

====

subjectOfTest: mouse TAAR1 (Mus musculus, UniProt Q923Y8)
Construct: expressed in transfected cells; membrane preparation
protocolDetails: Radioligand binding assay on mouse TAAR1
conditionContext: mouse TAAR1, HEK-293 membranes, first value of cell mouse/rat
Procedure: For the construction of expression plasmids the coding sequences of human, rat and mouse TAAR 1 were amplified from genomic DNA essentially as described by Lindemann et al.. The Expand High Fidelity PCR System (Roche Diagnostics) was used with 1.5 mM Mg^2+ and purified PCR products were cloned into pCR2.1-TOPO cloning vector (Invitrogen) following the instructions of the manufacturer. […]
Structures can show the parent of a compound that is named as a salt.
Measured Ki values are reported for all entries that follow.
# unit: µM | format: bare number

Use these answered entries as a reference point.
In [3]: df
Out[3]:
                                   compound  measurementunit  resultnumber
0  O=C(Nc1ccc([C@@H]2CNCCO2)c(F)c1)c1cnc(OCC(F)(F)F)cn1               µM        0.0053
1  O=C(Nc1ccc([C@@H]2CNCCO2)cc1F)c1cnc(C2CC2)cn1               µM        0.0099
2  O=C(Nc1ccc([C@H]2CNCCO2)c(F)c1)c1cnc(OCC2CC2)cn1 [Example 12, hydrochloride]               µM        0.0045
3  Cc1ccc2ncc(C(=O)Nc3ccc([C@H]4CNCCO4)c(F)c3)nc2c1 [Example 15, hydrochloride]               µM        0.0068
4  CC(C)c1cncc(C(=O)Nc2ccc([C@H]3CNCCO3)c(F)c2)n1               µM        0.0181

Ask: Report Ki for O=C(Nc1ccc([C@@H]2CNCCO2)c(F)c1)c1cncc(OCC(F)(F)F)n1 please.
Result: 0.0292

Ask: Same question, O=C(Nc1ccc([C@H]2CNCCO2)c(F)c1)c1cnc2ccccc2n1 [Example 14, hydrochloride] this time
Result: 0.0028

Ask: Same question, O=C(Nc1ccc([C@H]2CNCCO2)cc1F)c1cnc(C2CC2)cn1 this time
Result: 0.0061

====

subjectOfTest: UniProt:Q923Y8
pKd: −log10 of the molar value.
assayReadout: pKd

Ask: Report pKd for CCN(C[C@H]1COC(N)=N1)c1ccccc1 [reference compound] please.
Result: ~9.15

====

subjectOfTest: rat TAAR1 (Rattus norvegicus)
Construct: expressed in transfected cells; membrane preparation
protocolDetails: Radioligand binding assay on rat TAAR1
conditionContext: rat TAAR1, HEK-293 membranes, second value of cell mouse/rat
Where a name gives a salt, the structure may show the parent alone.
Measured log10 of Ki values are reported for all entries that follow.
Note: values are log10 of Ki expressed in µM.

Use these answered entries as a reference point.
                                   compound  resultnumber
0  O=C(Nc1ccc([C@@H]2CNCCO2)cc1F)c1cnc(C2CC2)cn1 [Example 20]         -1.15
1  O=C(Nc1ccc([C@@H]2CNCCO2)c(F)c1)c1cncc(OCC(F)(F)F)n1 [Example 30]         -2.46

Ask: Report log10 of Ki for COc1cncc(C(=O)Nc2ccc([C@H]3CNCCO3)c(F)c2)n1 [Example 9, hydrochloride] please.
Result: -0.61

Ask: Same question, O=C(Nc1ccc([C@H]2CNCCO2)c(F)c1)c1cnc(OCC2CCC2)cn1 [Example 11, hydrochloride] this time
Result: -1.92

Ask: Same question, O=C(Nc1ccc([C@H]2CNCCO2)cc1F)c1cncc(OCC(F)(F)F)n1 [Example 25] this time
Result: -1.91

Ask: Same question, O=C(Nc1ccc([C@H]2CNCCO2)c(F)c1)c1cncc(C(F)(F)F)n1 [Example 5, hydrochloride] this time
Result: -1.27

Ask: Same question, O=C(Nc1ccc([C@H]2CNCCO2)c(F)c1)c1cncc(OCC(F)(F)F)n1 [Example 26] this time
Result: -2.49

Ask: Same question, O=C(Nc1ccc([C@@H]2CNCCO2)c(F)c1)c1cnc(OCC(F)(F)F)cn1 [Example 28] this time
Result: -2.43

Ask: Same question, N#Cc1cc(NC(=O)c2cnc(C(F)(F)F)cn2)ccc1[C@H]1CNCCO1 [Example 3, hydrochloride] this time
Result: 0.04

Ask: Same question, O=C(Nc1ccc([C@@H]2CNCCO2)c(F)c1)c1cncc(C(F)(F)F)n1 [Example 6, hydrochloride] this time
Result: -1.71

Ask: Same question, O=C(Nc1ccc([C@H]2CNCCO2)c(F)c1)c1cnc(OCC2CC2)cn1 [Example 12, hydrochloride] this time
Result: -1.40

Ask: Same question, N#Cc1cc(NC(=O)c2cncc(C(F)(F)F)n2)ccc1[C@@H]1CNCCO1 [Example 4, hydrochloride] this time
Result: -1.46

Ask: Same question, COc1cnc(C(=O)Nc2ccc([C@@H]3CNCCO3)c(F)c2)cn1 [Example 8, hydrochloride] this time
Result: -1.32

Ask: Same question, O=C(Nc1ccc([C@H]2CNCCO2)cc1F)c1cnc(OCC(F)(F)F)cn1 [Example 23] this time
Result: -1.06

Ask: Same question, O=C(Nc1ccc([C@H]2CNCCO2)cc1F)c1cnc(C2CC2)cn1 [Example 19] this time
Result: -0.63
